target: A/PR8-S331G virus NA (Influenza A virus (H3N2), UniProt A0A193ACB1, S331G); type: biochemical; settings: read-out: NA enzyme inhibition assay (mean IC50 ± SD)
READOUT LABEL: pIC50
Answers are plain numbers, as −log10 of the molar value.

**Q:** State the recorded pIC50 for this entry: `CCC(CC)[C@H](NC(C)=O)[C@@H]1[C@H](O)[C@@H](C(=O)O)C[C@H]1N=C(N)N`
**A:** 9.52

###

target: A/PR8-I222V virus NA (Influenza A virus (H3N2), UniProt V5P6L4, I222V); conditions: read-out: NA enzyme inhibition assay (mean IC50 ± SD)
READOUT LABEL: IC50 (nM)
Answers are plain numbers, in nM.

**Q:** Which value of IC50 has been reported for `CCC(CC)[C@H](NC(C)=O)[C@@H]1[C@H](O)[C@@H](C(=O)O)C[C@H]1N=C(N)N` in the records?
**A:** 0.1
